- Tested on: M. morganii GC 4531
- test description: In vitro MIC, broth dilution
- Type: cell-based
- test parameters: Morganella morganii, GC4531; M. morganii GC 4531; read-out: MIC
Each entry below carries its reported MIC.

Consider the worked cases shown below.
The compound identified as COc1ccc(Cn2c(=O)ccn([C@@H]3OC([C@H](O)[C@H](NCCCNC(=O)[C@@H](N)CC(C)C)C(=O)OC(C)(C)C)[C@@H](O[Si](C)(C)C(C)(C)C)[C@H]3O[Si](C)(C)C(C)(C)C)c2=O)cc1 (stereo partly drawn) registered its MIC at > 128 µg/mL

Recorded MIC (compound CCOC(=O)C(NCCCNC(=O)[C@@H](N)[C@H](C)O)[C@@H](O)[C@H]1O[C@@H](n2ccc(=O)[nH]c2=O)[C@H](OC(C)=O)[C@@H]1OC(C)=O (stereo partly drawn) ): > 128 µg/mL

# context switch: different compound, same MIC
Reported MIC of COc1ccc(Cn2c(=O)ccn([C@@H]3OC([C@H](O)[C@H](NCCCNC(=O)[C@H](CC(C)C)NC(=O)[C@H](CCCNC(=N)N[N+](=O)[O-])NC(=O)N[C@H](C(=O)OCc4ccccc4)C(C)C)C(=O)O)[C@@H](O)[C@H]3O)c2=O)cc1 (stereo partly drawn) : 128 µg/mL
